# experimentalDetails: Cytotoxicity in Calu-3 cells
# Assay type: cell-based
# conditions: human, Calu-3 lung epithelial cells, read-out: 50% cytotoxic concentration (CC50)
readoutType: CC50

INPUT: Given `COc1cc(/C=C/C(=O)/C=C/C=C/c2cc(OC)c(O)c(OC)c2)cc(OC)c1` , state its recorded CC50.
OUTPUT: > 100 µM

====

# System: SARS-CoV-2
# experimentalDetails: Antiviral activity against SARS-CoV-2 in Calu-3 cells
# Format: cell-based
# conditions: Severe acute respiratory syndrome coronavirus 2, Calu-3, read-out: average half-maximum effective concentration (IC50)
readoutType: IC50 (nM)
Respond with the bare value in nM.

INPUT: Data request, read-out IC50, for COc1cc(/C=C/C(=O)/C=C/C=C/c2cc(OC)c(O)c(OC)c2)cc(OC)c1 [Compound I]
OUTPUT: 1500
